Recorded EC50 by entry
# TARGET UNDER TEST: GPR39 receptors on m39-20 cell lines (Mus musculus, UniProt Q5U431, T447P)
# Construct: P2A-mCherry (C); expressed in transfected cells
# Sequence (Q5U431 1-456 T447P): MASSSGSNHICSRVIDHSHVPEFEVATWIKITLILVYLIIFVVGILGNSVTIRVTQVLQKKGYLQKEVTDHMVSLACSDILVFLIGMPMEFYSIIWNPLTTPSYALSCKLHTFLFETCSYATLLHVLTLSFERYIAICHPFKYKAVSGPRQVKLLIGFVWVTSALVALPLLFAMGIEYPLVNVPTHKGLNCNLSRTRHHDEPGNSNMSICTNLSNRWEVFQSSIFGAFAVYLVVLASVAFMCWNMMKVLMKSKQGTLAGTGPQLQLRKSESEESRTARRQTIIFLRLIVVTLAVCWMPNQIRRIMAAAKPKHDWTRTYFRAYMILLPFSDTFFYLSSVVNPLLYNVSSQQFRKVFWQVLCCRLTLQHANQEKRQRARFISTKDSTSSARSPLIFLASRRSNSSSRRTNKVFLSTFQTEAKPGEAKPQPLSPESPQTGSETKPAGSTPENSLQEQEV
# ASSAY COMMENT: FLIPR calcium imaging on m39-20 cell lines stably expressing murine-derived GPR39
# Format: cell-based
# EXPERIMENTAL CONDITIONS: Bile acid + 4 μM zinc ions EC50, m39-20 cells, 4 μM zinc ions
Provide only the numeric value, understood in µM.

Take a look at these entries with their results.
[[record]]
molecule = "C[C@H](CCC(=O)NCC(=O)O)[C@H]1CC[C@H]2[C@@H]3[C@H](O)C[C@@H]4C[C@H](O)CC[C@]4(C)[C@H]3CC[C@]12C"
assay_metric = "EC50"
value_unit = "µM"
assay_value = 80.6

[[record]]
molecule = "C[C@H](CCC(=O)NCC(=O)O)[C@H]1CC[C@H]2[C@@H]3CC[C@@H]4C[C@H](O)CC[C@]4(C)[C@H]3C[C@H](O)[C@]12C"
assay_metric = "EC50"
value_unit = "µM"
assay_value = 46

[[record]]
molecule = "C[C@H](CCC(=O)O)[C@H]1CC[C@H]2[C@@H]3[C@H](O)C[C@@H]4C[C@H](O)CC[C@]4(C)[C@H]3C[C@H](O)[C@]12C"
assay_metric = "EC50"
value_unit = "µM"
assay_value = 49.2

[[record]]
molecule = "C[C@H](CCC(=O)NCC(=O)O)[C@H]1CC[C@H]2[C@@H]3CC[C@@H]4C[C@H](OS(=O)(=O)O)CC[C@]4(C)[C@H]3CC[C@]12C"
assay_metric = "EC50"
value_unit = "µM"
assay_value = 8

[[record]]
molecule = "C[C@H](CCC(=O)O)[C@H]1CC[C@H]2[C@@H]3[C@H](O)C[C@@H]4C[C@H](O)CC[C@]4(C)[C@H]3CC[C@]12C"
assay_metric = "EC50"
value_unit = "µM"
assay_value = 75.1


Provide value of EC50 for this record tested with GPR39 receptors on m39-20 cell lines (Mus musculus, UniProt Q5U431, T447P): C[C@H](CCC(=O)O)[C@H]1CC[C@H]2[C@@H]3CC[C@@H]4C[C@H](OS(=O)(=O)O)CC[C@]4(C)[C@H]3C[C@H](O)[C@]12C
37.8

Same lookup for C[C@H](CCC(=O)NCC(=O)O)[C@H]1CC[C@H]2[C@@H]3CC[C@@H]4C[C@H](O)CC[C@]4(C)[C@H]3CC[C@]12C , please.
13.5

Next compound up: C[C@H](CCC(=O)NCCS(=O)(=O)O)[C@H]1CC[C@H]2[C@@H]3CC[C@@H]4C[C@H](O)CC[C@]4(C)[C@H]3C[C@H](O)[C@]12C
27.6

// same read-out, input: C[C@H](CCC(=O)O)[C@H]1CC[C@H]2[C@@H]3[C@@H](O)C[C@@H]4C[C@H](OS(=O)(=O)O)CC[C@]4(C)[C@H]3CC[C@]12C
68.6

Now the compound C[C@H](CCC(=O)O)[C@H]1CC[C@H]2[C@@H]3CC[C@@H]4C[C@H](O)CC[C@]4(C)[C@H]3C[C@H](O)[C@]12C
58.4

* * *

# TARGET UNDER TEST: GPR39 receptors on m39-20 cell lines (Mus musculus, UniProt Q5U431, T447P)
# Construct: P2A-mCherry (C); expressed in transfected cells
# ASSAY COMMENT: FLIPR calcium imaging on m39-20 cell lines stably expressing murine-derived GPR39
# Type: cell-based
# EXPERIMENTAL CONDITIONS: activation efficacy, m39-20 cells, no zinc ions
We begin with a simple list: items and their reported Only bile acid Efficacy.
The response must be a number in % with no trailing unit.

Please review the following examples before continuing.
[[record]]
molecule = "C[C@H](CCC(=O)NCC(=O)O)[C@H]1CC[C@H]2[C@@H]3[C@H](O)C[C@@H]4C[C@H](OS(=O)(=O)O)CC[C@]4(C)[C@H]3CC[C@]12C"
value_unit = "%"
assay_value = 0

[[record]]
molecule = "C[C@H](CCC(=O)NCCS(=O)(=O)O)[C@H]1CC[C@H]2[C@@H]3CC[C@@H]4C[C@H](O)CC[C@]4(C)[C@H]3C[C@H](O)[C@]12C"
value_unit = "%"
assay_value = 22.8


// lookup Only bile acid Efficacy | system=GPR39 receptors on m39-20 cell lines (Mus musculus, UniProt Q5U431, T447P) | key= C[C@H](CCC(=O)O)[C@H]1CC[C@H]2[C@@H]3[C@@H](O)C[C@@H]4C[C@H](OS(=O)(=O)O)CC[C@]4(C)[C@H]3CC[C@]12C
0

Please give the result for C[C@H](CCC(=O)O)[C@H]1CC[C@H]2[C@@H]3CC[C@@H]4C[C@H](OS(=O)(=O)O)CC[C@]4(C)[C@H]3CC[C@]12C too.
111.1

Please do the same for C[C@H](CCC(=O)O)[C@H]1CC[C@H]2[C@@H]3CC[C@@H]4C[C@H](OS(=O)(=O)O)CC[C@]4(C)[C@H]3C[C@H](O)[C@]12C as well.
0

The reported measurements were obtained from patent US12569502B2.
